- system-name: PAR1 (Homo sapiens, UniProt P25116)
- Construct: endogenous in cells
- Sequence (P25116 22-425): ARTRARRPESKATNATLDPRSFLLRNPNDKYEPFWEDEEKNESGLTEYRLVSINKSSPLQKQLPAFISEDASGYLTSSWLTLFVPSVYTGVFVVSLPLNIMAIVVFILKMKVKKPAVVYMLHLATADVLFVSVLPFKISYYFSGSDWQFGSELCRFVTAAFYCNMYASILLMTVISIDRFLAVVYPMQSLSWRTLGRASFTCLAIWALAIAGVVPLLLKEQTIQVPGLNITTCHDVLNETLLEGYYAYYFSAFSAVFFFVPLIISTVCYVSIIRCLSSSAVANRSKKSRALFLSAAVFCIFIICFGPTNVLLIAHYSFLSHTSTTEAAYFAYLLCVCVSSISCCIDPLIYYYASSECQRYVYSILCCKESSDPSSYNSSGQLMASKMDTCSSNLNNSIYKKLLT
- measurement-protocol: Inhibition of PAR1-mediated platelet aggregation induced by TRAP (thrombin receptor-activating peptide), 96-well format
- experimental-parameters: washed platelets from healthy volunteers; TRAP as agonist; AUC of kinetics at 650 nm, 37° C., 20 minutes
For each entry below, report its pIC50 value.
One number for each entry, as −log10 of the molar value.

Take a look at these entries with their results.
1) CC(C)(CO)CNC(=O)c1n[nH]c2c1C(C=Cc1ccc(-c3cccc(F)c3)cn1)C1=C(CC3(CCCC3)CC1=O)N2 (stereo not drawn) [Example 31]    6.42
2) CC(C)NC(=O)c1n[nH]c2c1C(/C=C/c1ccc(-c3cccc(F)c3)cn1)C1=C(CC(C)(C)CC1=O)N2 (stereo not drawn) [Example 8]    5.73

Please find the next compound below.
Specify measured pIC50 for O=C1CC2(CCCC2)CC2=C1[C@H](/C=C/c1ccc(-c3cccc(F)c3)cn1)c1c(C(=O)NCC3(CO)CC3)n[nH]c1N2 [Example 35] .
6.39
